experimental.system: native human MET on living human cells (human, UniProt P08581 25-1390)
Sequence (P08581 25-1390): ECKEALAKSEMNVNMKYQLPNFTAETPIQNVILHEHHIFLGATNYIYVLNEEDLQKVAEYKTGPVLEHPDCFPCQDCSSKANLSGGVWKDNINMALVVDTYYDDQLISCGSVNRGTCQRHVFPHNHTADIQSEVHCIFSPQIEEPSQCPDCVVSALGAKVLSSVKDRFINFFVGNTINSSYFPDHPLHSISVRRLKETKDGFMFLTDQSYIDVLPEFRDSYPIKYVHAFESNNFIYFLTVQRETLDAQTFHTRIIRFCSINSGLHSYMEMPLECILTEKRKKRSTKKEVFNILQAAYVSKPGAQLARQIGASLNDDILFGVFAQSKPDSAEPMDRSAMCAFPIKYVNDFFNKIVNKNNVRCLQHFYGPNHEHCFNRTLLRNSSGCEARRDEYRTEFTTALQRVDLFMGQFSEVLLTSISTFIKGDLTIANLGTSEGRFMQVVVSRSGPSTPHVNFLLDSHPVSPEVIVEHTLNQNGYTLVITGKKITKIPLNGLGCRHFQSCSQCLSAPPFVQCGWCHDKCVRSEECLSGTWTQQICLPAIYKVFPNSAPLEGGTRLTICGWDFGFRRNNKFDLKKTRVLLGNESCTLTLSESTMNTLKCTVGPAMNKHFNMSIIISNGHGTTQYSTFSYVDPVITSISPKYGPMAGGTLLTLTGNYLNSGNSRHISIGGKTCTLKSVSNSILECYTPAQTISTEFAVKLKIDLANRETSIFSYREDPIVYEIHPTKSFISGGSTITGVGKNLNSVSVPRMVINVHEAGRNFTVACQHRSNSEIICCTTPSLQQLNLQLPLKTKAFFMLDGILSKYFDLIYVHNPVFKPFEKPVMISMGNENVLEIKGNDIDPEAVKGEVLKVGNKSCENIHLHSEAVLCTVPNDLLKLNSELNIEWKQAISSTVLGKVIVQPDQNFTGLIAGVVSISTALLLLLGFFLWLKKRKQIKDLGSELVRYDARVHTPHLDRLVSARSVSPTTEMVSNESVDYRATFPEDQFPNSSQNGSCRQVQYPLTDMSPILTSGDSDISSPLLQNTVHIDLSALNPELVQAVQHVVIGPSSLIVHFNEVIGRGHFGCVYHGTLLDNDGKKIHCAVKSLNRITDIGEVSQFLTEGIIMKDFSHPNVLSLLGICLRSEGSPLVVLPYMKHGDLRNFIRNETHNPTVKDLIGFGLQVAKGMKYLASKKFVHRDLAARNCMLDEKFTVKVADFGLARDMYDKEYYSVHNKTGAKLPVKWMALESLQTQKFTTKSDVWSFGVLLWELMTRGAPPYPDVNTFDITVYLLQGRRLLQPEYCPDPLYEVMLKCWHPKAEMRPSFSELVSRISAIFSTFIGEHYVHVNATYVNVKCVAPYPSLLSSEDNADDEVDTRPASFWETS
method.notes: cell-based or functional assay
recorded.endpoint: cell scattering score, HPAF-II, 0.004 nM
State the result as a value with its unit after it.

chimeric llama-human IgG1 mAb 74C8 (antibody, V domains shown) VH: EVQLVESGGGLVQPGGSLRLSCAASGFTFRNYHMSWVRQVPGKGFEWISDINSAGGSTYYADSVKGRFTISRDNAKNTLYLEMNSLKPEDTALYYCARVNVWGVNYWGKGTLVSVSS VL: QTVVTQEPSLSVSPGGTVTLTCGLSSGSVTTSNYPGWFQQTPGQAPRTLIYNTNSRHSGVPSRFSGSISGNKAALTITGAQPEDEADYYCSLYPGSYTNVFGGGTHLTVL = 0 score 0-4
chimeric llama-human IgG1 mAb 76G7 (antibody, V domains shown) VH: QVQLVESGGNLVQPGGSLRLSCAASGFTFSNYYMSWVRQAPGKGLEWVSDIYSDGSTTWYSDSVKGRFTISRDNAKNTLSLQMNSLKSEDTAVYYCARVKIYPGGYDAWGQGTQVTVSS VL: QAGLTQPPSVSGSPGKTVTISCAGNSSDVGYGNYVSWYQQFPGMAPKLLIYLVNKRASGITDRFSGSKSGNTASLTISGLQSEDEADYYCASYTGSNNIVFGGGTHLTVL = 0 score 0-4

Next item in the queue.
Request: If you can, please state the reported cell scattering score, HPAF-II, 0.004 nM value of chimeric llama-human IgG1 mAb 76H10 (antibody, V domains shown) VH: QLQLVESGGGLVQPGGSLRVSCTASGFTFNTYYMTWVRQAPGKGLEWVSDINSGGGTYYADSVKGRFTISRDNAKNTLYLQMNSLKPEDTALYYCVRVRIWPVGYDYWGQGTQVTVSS VL: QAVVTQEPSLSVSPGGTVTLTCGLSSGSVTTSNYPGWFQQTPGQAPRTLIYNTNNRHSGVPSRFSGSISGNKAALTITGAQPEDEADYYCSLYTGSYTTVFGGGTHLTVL .
Result: 0 score 0-4

Where do these numbers come from? They come from patent US20210024639A1.
